# Test system: BT-549 breast
# test-name: NCI-60 one-dose screen, 48 h
# condition-set: 10 µM
The panel holds about 83,000 compounds, 20% with a hit somewhere; the sample as a whole holds those more often. The source made the active and inactive calls. Rule for the calls: active = growth percent below 10; inactive = the rest.
The reply should name one outcome from yes (active), no (inactive)

- CC/C(=N\N=C(/CC)c1ccc(Br)cc1)c1ccc(Br)cc1: no
- COc1cc(/C(=C2/O[C@@H]([C@H]3COC(C)(C)O3)[C@H]3OC(C)(C)O[C@@H]23)c2ccc3ccccc3c2)cc(OC)c1OC: no
- O=C(Nc1cccc(-n2cc(-c3ccncc3)c(-c3cc(O)cc(Cl)c3)n2)c1)c1cc(C(F)(F)F)cc(C(F)(F)F)c1: no
- COc1ccc2c(c1)sc1nc(-c3ccccc3)c(-c3cccnc3)n12: no
- Cc1ccc(C(=O)N2C/C(=C/c3ccccc3)C(=O)/C(=C/c3ccccc3)C2)cc1: no
- CCOC(=O)N1C=CC2C=CC1C1C=CC=CC2N1C(=O)OCC (stereo not given): no
- COc1ccc(C2CC(c3ccc(N(C)C)cc3)=NN2c2ccc(S(N)(=O)=O)cc2)cc1 (stereo not given): no
- Cc1ccc(S(=O)(=O)OCCN(CCOS(=O)(=O)c2ccc(C)cc2)c2c[nH]c(=O)[nH]c2=O)cc1: no

Hi, do you know how Cn1c([N+](=O)[O-])cnc1/C=C1\Oc2ccccc2C1=O came out in this test? yes

Hi, do you know how COc1ccc(-c2cc(/C=C3\C(=O)Nc4ccc(OC)cc43)[nH]n2)cc1 came out in this test? no

Hi, do you know how O=C1OCC2=C1C(c1cccc(Cl)c1)c1cc3c(cc1N2CCO)CCC3 (stereo not given) came out in this test? yes

Hi, do you know how Nc1c(C(=O)Nc2ccccc2Cl)sc2nc3c(cc12)C(=O)CCC3 came out in this test? no

Hi, do you know how Cc1ccc(S(=O)(=O)Oc2ccc3c4c(c(=O)oc3c2)CCCCC4)cc1 came out in this test? no

Hi, do you know how COC(=O)C(C(C[N+](=O)[O-])c1ccccc1)=P(c1ccccc1)(c1ccccc1)c1ccccc1 (stereo not given) came out in this test? no

Hi, do you know how CN(C)Cc1cn(-c2ncc(-c3ccc(C(F)(F)F)cc3)c(NC3CCCCCC3)n2)nn1 came out in this test? no

Hi, do you know how CCCCCCCCCCCCCCCCCCOCC(COCCOCC[N+]1(CCCCCC(=O)[O-])CCCC1)Oc1ncccn1 (stereo not given) came out in this test? no

Hi, do you know how O=C(Nc1cccc(-n2cc(-c3ccncc3)c(-c3ccc(O)c(Cl)c3)n2)c1)c1cccc(C(F)(F)F)c1 came out in this test? no

Hi, do you know how CC1(C)N=C(N)N=C(N)N1c1ccc(CCc2ccccc2)c(Cl)c1 came out in this test? no

Hi, do you know how COc1ccc(-c2nn(-c3cccc(NC(=O)Nc4ccccc4)c3)cc2-c2ccncc2)cc1Cl came out in this test? yes

Hi, do you know how COc1cc(Cl)cc(-c2nn(-c3cccc(NC(=O)Nc4cc(C(F)(F)F)cc(C(F)(F)F)c4)c3)cc2-c2ccncc2)c1 came out in this test? yes

Hi, do you know how CCN(CC)Cc1cc(Nc2ccnc3cc(Cl)ccc23)ccc1OC came out in this test? no

Hi, do you know how O=C(Nc1ccncc1)C(=O)c1cn(S(=O)(=O)c2cccc(Cl)c2)c2ccccc12 came out in this test? no

Hi, do you know how C(CCCC1=NCCO1)CCCC1=NCCO1 came out in this test? no

Hi, do you know how COc1ccc(NC(=O)Cc2nc3nc4sc(C)c(C)c4c(=O)n3[nH]2)cc1 came out in this test? no

Hi, do you know how O=C(O)CCCCSc1ncnc2nc[nH]c12 came out in this test? no
